B1: library; numbered along this chain (parent)
chain: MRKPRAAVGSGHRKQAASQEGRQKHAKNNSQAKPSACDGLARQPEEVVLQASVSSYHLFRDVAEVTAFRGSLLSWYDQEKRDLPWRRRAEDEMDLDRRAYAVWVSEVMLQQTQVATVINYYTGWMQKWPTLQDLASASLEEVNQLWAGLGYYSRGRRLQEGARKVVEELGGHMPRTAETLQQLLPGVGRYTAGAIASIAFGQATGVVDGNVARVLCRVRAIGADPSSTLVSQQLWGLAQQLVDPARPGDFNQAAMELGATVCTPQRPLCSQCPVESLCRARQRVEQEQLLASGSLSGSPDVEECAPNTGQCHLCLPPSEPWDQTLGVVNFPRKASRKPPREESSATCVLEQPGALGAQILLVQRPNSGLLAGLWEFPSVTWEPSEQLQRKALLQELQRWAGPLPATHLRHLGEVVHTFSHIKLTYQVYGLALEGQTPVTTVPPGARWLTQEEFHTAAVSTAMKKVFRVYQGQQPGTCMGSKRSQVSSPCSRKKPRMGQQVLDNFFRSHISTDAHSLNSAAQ

variants of: B1; experiment: 8OG:A repair function score (normalized; synonymous = 0, nonsense = -1) (normalized log-likelihood score); higher = more repair activity (WT-like); conditions: with 8OG:A DNA repair reporter (GFP) in HEK-293 MUTYH KO cells;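 further: cells sorted at 72 h after reporter transfection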
metric_name: 8OG:A repair function score

INSERT INTO results (variant_id, readout_value) VALUES
  ('S344Y', 0.0271),
  ('M173Y', -0.366),
  ('W399Y', 0.509),
  ('F376V', -0.809),
  ('P299G', -0.0369),
  ('Q470H', -0.029),
  ('G70V', 0.0055),
  ('A99K', -1.18),
  ('A354I', -0.0486),
  ('E319I', -0.0159),
  ('A305G', -0.0138),
  ('A371I', -0.776),
  ('A291F', -0.0509),
  ('Q521P', -0.0312),
  ('V379K', -0.667),
  ('S480M', 0.0231),
  ('R60T', 0.00688),
  ('W447G', -1.04),
  ('E141N', 0.127),
  ('V379D', -0.793),
  ('R281V', -0.131),
  ('L237N', -0.583);
